Examples of compounds with documented melting point follow.
METRIC NAME: melting point

1. CCCC(O)CN1CC(C(=O)c2ccc(Cc3ccc(F)cc3)o2)=C(O)C1=O (stereo not drawn)
171 °C
2. CN1CC(c2ncc(Cc3ccc(F)cc3)cn2)=C(O)C1=O
163 to 165 °C
3. CC(C)N1CC(C(=O)c2cncn2Cc2ccc(F)cc2)=C(O)C1=O
156 to 159 °C
4. CN1CC(c2ncc(Oc3ccccc3)cn2)=C(O)C1=O
207 to 208 °C
5. CC(C)N1CC(c2nccc(CCc3ccccc3)n2)=C(O)C1=O
126 to 127 °C
6. CC(C)N1CC(C(=O)c2cn(Cc3ccc(F)cc3)cn2)=C(O)C1=O
224 to 226 °C

----------
# TARGET OR SYSTEM: integrase (Human immunodeficiency virus type 1 group M subtype B)
# EXPERIMENT NOTES: Integrase inhibition assay (microtiter plate strand transfer, substrate DNA/target DNA, anti-digoxigenin ELISA)
# Format: biochemical
# ASSAY CONDITIONS: concentration of the compound at percent inhibition 50%; 30° C. for 1 hour; OD at 405 nm; read-out: IC50 (converted)
Examples of compounds with documented IC50 follow.
METRIC NAME: IC50 (µM)

1) CN1CC(c2cc(CCc3ccccc3)ncn2)=C(O)C1=O [Compound B-6-a]
5.42
2) O=C1C(O)=C(c2cc(CCc3ccccc3)ncn2)CN1C1CCCCC1 [Compound B-6-d]
6.6
3) CC(C)N1CC(C(=O)c2ccc(Cc3ccc(F)cc3)o2)=C(O)C1=O [Compound A-7]
2.21
4) O=c1c(O)c(-c2nnc(Cc3ccc(F)cc3)o2)oc2ccccc12 [Compound C-26]
1.06
5) CCN1CCC(C(=O)c2ccc(Cc3ccc(F)cc3)o2)=C(O)C1=O [Compound I-4]
1.46

----------
Where a name gives a salt, the structure may show the parent alone.
Examples of compounds with documented melting point follow.
METRIC NAME: melting point

1) Cn1c(-c2nnc(Cc3ccc(F)cc3)o2)c(O)c(=O)c2ccccc21
222 °C
2) CCOC(=O)c1oc2ccc(OCc3ccc(F)cc3)cc2c(=O)c1O
190 to 192 °C
3) O=c1c(O)c(-c2nc[nH]n2)oc2cccc(OCc3ccc(F)cc3)c12
254 to 256 °C
4) CC(C)c1ccccc1COc1cc(C2=C(O)C(=O)N(C)C2)ncn1
240 to 241 °C
5) CN1CC(C(=O)c2ncoc2Cc2ccc(F)cc2)=C(O)C1=O (as salt: salt)
257 °C
6) CN1CC(C(=O)c2cc(C(=O)NCc3ccccc3)c(Cc3ccc(F)cc3)o2)=C(O)C1=O
181 to 184 °C
7) CC(C)N1CC(c2cc(CCc3ccc(F)cc3)ccn2)=C(O)C1=O
167 to 168 °C
8) COC(C)(C)c1cc(Cc2ccc(F)cc2)c(C(=O)C2=C(O)C(=O)N(C)C2)o1 [Compound A-158]
144 to 145 °C
9) CC(C)N1CC(c2ccc([S+]([O-])c3ccc(F)cc3)cn2)=C(O)C1=O (stereo not drawn)
205 to 207 °C
10) CN1CC(C(=O)c2cccc(Cc3ccc(F)cc3)c2)=C(O)C1=O [Compound A-12-a]
135 to 137 °C
11) CN1CC(C(=O)c2cc(Cc3ccc(F)cc3)co2)=C(O)C1=O
143 to 145 °C
12) COCc1cc(=O)c(O)c(C(=O)c2ccc(Cc3ccc(F)cc3)o2)o1
147 to 148 °C
13) CN1CC(c2cnc(Oc3ccc(F)cc3)cn2)=C(O)C1=O
237 to 238 °C
14) CCN1CC(C(=O)c2oc(S(C)(=O)=O)cc2Cc2ccc(F)cc2)=C(O)C1=O
154 to 157 °C
15) COc1cc(F)ccc1Cc1ccc(C(=O)C2=C(O)C(=O)N(C(C)C)C2)o1
112 to 113 °C
16) CC(O)CN1CC(C(=O)c2ccc(Cc3ccc(F)cc3)o2)=C(O)C1=O (stereo not drawn)
172 °C
17) Cn1c(C(=O)c2ccc(Cc3ccc(F)cc3)o2)c(O)c(=O)n1C
110 to 111 °C
18) CC(C)N1CC(c2nccc(OCc3ccc(F)cc3)n2)=C(O)C1=O
148 to 149 °C
19) O=C(C1=C(O)C(=O)N(Cc2ccccc2)C1)c1ccc(Cc2ccc(F)cc2)o1
129 to 130 °C
20) CCN1CC(C(=O)c2oc(C(C)(C)C)cc2Cc2ccc(F)cc2)=C(O)C1=O
141 to 143 °C
21) CN1CC(c2ncc(CCc3ccc(F)cc3)cn2)=C(O)C1=O
158 to 160 °C

----------
Examples of molecules with documented melting point follow.
METRIC NAME: melting point

1) O=C(c1ccc(Cc2ccc(F)cc2)o1)c1oc2ccccc2c(=O)c1O
226 to 227 °C
2) CN1CC(c2cc(CCc3ccccc3)cnn2)=C(O)C1=O
203 to 205 °C
3) COCCNC(=O)c1cc(=O)c(O)c(C(=O)c2ccc(Cc3ccc(F)cc3)o2)o1
177 to 179 °C
4) COCn1ccc(C(=O)c2ccc(Cc3ccc(F)cc3)o2)c(O)c1=O
128 to 130 °C
5) CN1CC(C(=O)c2ccc(Cc3ccc(F)cc3)[nH]2)=C(O)C1=O
221 to 223 °C
6) COCNC(=O)c1cc(OCc2ccc(F)cc2)c2c(=O)c(O)c(-c3ncnn3C)oc2c1
220 to 221 °C
7) CC(C)N1CC(C(=O)c2c[nH]c(Cc3ccc(F)cc3)n2)=C(O)C1=O
220 °C
8) CN1CC(c2ccc(Oc3ccccc3)cn2)=C(O)C1=O
200 to 202 °C
9) Cc1oc(C(=O)C2=C(O)C(=O)N(C)C2)c(Cc2ccc(F)cc2)c1C
202 to 204 °C
10) CN1CC(c2ncc(OCc3ccc(F)cc3)cn2)=C(O)C1=O [Compound B-68]
185 to 187 °C
11) CN1CC(c2cc(CCc3ccc(F)cc3)ncn2)=C(O)C1=O
225 to 228 °C
12) Cc1nc(C(=O)C2=C(O)C(=O)N(C)C2)c(Cc2ccc(F)cc2)o1
170 °C
13) CC(C)N1CC(c2ncc(Cc3ccc(F)cc3)s2)=C(O)C1=O
212 to 214 °C
14) Cc1ccc(-c2cc(Cc3ccc(F)cc3)c(C(=O)C3=C(O)C(=O)N(C)C3)o2)cc1
242 to 245 °C
15) Cn1ncnc1-c1oc2cccc(OCCc3ccc(F)cc3)c2c(=O)c1O
215 to 217 °C
16) CC(C)N1CC(C(=O)c2cnc(Cc3ccc(F)cc3)o2)=C(O)C1=O
174 to 178 °C
17) CN1CC(c2nccc(OCc3ccc(F)cc3)n2)=C(O)C1=O
227 to 230 °C
18) COc1ccc(CN2CC(c3ccc(Cc4ccc(F)cc4)cn3)=C(O)C2=O)cc1
164 to 166 °C
19) CN1CC(c2cc(CCc3ccc(F)cc3)ccn2)=C(O)C1=O
167 to 168 °C
20) O=C(C1=C(O)C(=O)N(CC(O)CO)C1)c1occc1Cc1ccc(F)cc1 (stereo not shown)
208 to 210 °C
21) CC(C)N1CC(c2cc(CCc3ccccc3)cnn2)=C(O)C1=O
182 to 184 °C
22) COc1cc(Cc2ccc(C(=O)C3=C(O)C(=O)N(C(C)C)C3)o2)ccc1F
160 to 161 °C

----------
Examples of compounds with documented melting point follow.
METRIC NAME: melting point

1) O=C(C1=C(O)C(=O)N(CCN2CCCCC2)C1)c1ccc(Cc2ccc(F)cc2)o1
228 to 232 °C (dec.)
2) CC(C)N1CC(c2ccc(Oc3ccccc3)cn2)=C(O)C1=O
181 to 183 °C
3) CN(C)C(=O)c1ccc(OCc2ccc(F)cc2)c2c(=O)c(O)c(-c3ncnn3C)oc12
246 to 247 °C
4) CC(C)N1CC(C(=O)c2cnn(Cc3ccc(F)cc3)c2)=C(O)C1=O
129.5 to 131 °C
5) CN1CC(c2ccc(Oc3ccc(F)cc3)cn2)=C(O)C1=O
229 to 230 °C
6) CC(C)Oc1cc(F)ccc1Cc1ccc(C(=O)C2=C(O)C(=O)N(C)C2)o1
126 to 129 °C
7) CN1CC(c2ncnc(OCc3ccc(F)cc3)n2)=C(O)C1=O
169 to 171 °C
8) CN1CC(C(=O)c2occc2Cc2ccc(F)cc2)=C(O)C1=O
208 to 210 °C
9) CCC(O)CN1CC(C(=O)c2ccc(Cc3ccc(F)cc3)o2)=C(O)C1=O (stereo not drawn)
132 to 133 °C
10) CN1CC(c2ncc(CCc3ccc(F)cc3)s2)=C(O)C1=O
214 to 216 °C
11) CN1CC(C(=O)c2ccc(Cc3ccccc3)o2)=C(O)C1=O
116 to 118 °C
12) CN1CC(C(=O)c2oc(Cc3ccc(F)cc3)cc2Cc2ccc(F)cc2)=C(O)C1=O
157 to 160 °C
13) COc1cc(Cc2ccc(C(=O)C3=C(O)C(=O)N(C)C3)o2)ccc1F
164 to 166 °C
14) Cn1ncnc1-c1oc2cc(C(N)=O)cc(OCc3ccc(F)cc3)c2c(=O)c1O
257 to 258 °C
15) O=C1CCCC(C(=O)c2ccc(Cc3ccc(F)cc3)o2)=C1O
133 to 134 °C
16) O=C(C1=C(O)C(=O)N(C2CCCC2)C1)c1ccc(Cc2ccc(F)cc2)o1
157 to 159 °C
17) Cn1cnc(-c2oc3cccc(OCc4ccc(F)cc4)c3c(=O)c2O)n1
264 to 266 °C
18) CC(C)N1CC(C(=O)c2ccc(Cc3ccc(F)cc3)o2)=C(O)C1=O
155 to 157 °C
19) CC(C)N1CC(c2ncc(OCc3ccc(F)cc3)cn2)=C(O)C1=O
219 to 221 °C
20) Cc1cc(Cc2ccc(F)cc2)c(C(=O)C2=C(O)C(=O)N(C)C2)o1
154 to 156 °C
21) COC(=O)c1cc(OCc2ccc(F)cc2)c2c(=O)c(O)c(-c3ncnn3C)oc2c1
253 to 255 °C
